- ASSAY TARGET: Free fatty acid receptor 1 (Homo sapiens)
- Sequence (O14842 whole entry): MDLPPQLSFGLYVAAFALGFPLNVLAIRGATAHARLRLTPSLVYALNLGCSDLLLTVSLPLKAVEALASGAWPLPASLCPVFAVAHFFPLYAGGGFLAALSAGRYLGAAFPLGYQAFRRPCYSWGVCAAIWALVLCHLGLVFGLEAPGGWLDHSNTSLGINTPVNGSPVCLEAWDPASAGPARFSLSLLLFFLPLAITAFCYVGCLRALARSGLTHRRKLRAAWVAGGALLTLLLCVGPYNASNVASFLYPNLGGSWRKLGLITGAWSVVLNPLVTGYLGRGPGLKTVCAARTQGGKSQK
- ASSAY OVERVIEW: Partial agonist activity at human GPR40 expressed in CHO cells measured over 20 secs interval by luminometric analysis in presence of 0.01% human serum albumin
- Type: cell-based
EXPERIMENTAL ENDPOINT: pEC50
In simple prose, pEC50 is minus the logarithm base ten of a concentration in moles per litre.

Sample records with pEC50:
LINE NOTATION	pEC50
Cn1ccnc1[C@@H](CC(=O)O)c1ccc(OCc2cccc(-c3ccccc3OC(F)(F)F)c2)cc1	6.95
Cn1ccnc1[C@@H](CC(=O)O)c1ccc(OCc2cccc(-c3ccccc3Cl)c2)cc1	7.37
COc1ccc(-c2cccc(COc3ccc([C@H](CC(=O)O)c4nccn4C)cc3)c2)cc1	6.36
Cn1ccnc1[C@@H](CC(=O)O)c1ccc(OCc2cccc(-c3ccccc3C#N)c2)cc1	6.16
COc1ccccc1-c1cccc(COc2ccc([C@H](CC(=O)O)c3nccn3C)cc2)c1	6.39

The molecule identified as `Cc1ccc(F)cc1-c1cccc(COc2ccc([C@H](CC(=O)O)c3nccn3C)cc2)c1` registered its pEC50 at 7.44

The molecule identified as `Cc1cccc(C)c1-c1cccc(COc2ccc([C@H](CC(=O)O)c3nccn3C)cc2)c1` registered its pEC50 at 7.24

The molecule identified as `Cc1cc(Cl)ccc1-c1cc(COc2ccc([C@H](CC(=O)O)c3nccn3C)cc2)ccc1C` registered its pEC50 at 7.01

The molecule identified as `Cn1ccnc1[C@@H](CC(=O)O)c1ccc(OCc2cccc(-c3ccccc3S(C)(=O)=O)c2)cc1` registered its pEC50 at 4.64

###

- ASSAY TARGET: UniProtKB O14842
- ASSAY OVERVIEW: Partial agonist activity at human GPR40 expressed in CHO cells measured over 20 secs interval by luminometric analysis
- Type: cell-based
pEC50 overview
In simple prose, pEC50 is minus the logarithm base ten of a concentration in moles per litre.

Sample records with pEC50:
MOLECULE	pEC50
O=C(O)CC(c1ccccc1)c1ccc(OCc2cccc(-c3ccc(C(F)(F)F)cc3)c2)cc1 (racemic)	6.48
O=C(O)CC(c1ccc(OCc2cccc(-c3ccc(C(F)(F)F)cc3)c2)cc1)c1nccs1 (racemic)	6.92

The molecule O=C(O)CC(c1ccc(OCc2cccc(-c3ccc(C(F)(F)F)cc3)c2)cc1)c1cccs1 (racemic) , when measured on UniProtKB O14842, yielded pEC50 of 6.72

The molecule O=C(O)CC(c1ccc(OCc2cccc(-c3ccc(C(F)(F)F)cc3)c2)cc1)c1ccccn1 (racemic) , when measured on UniProtKB O14842, yielded pEC50 of 6.48

The molecule Cn1ccnc1C(CC(=O)O)c1ccc(OCc2cccc(-c3ccc(C(F)(F)F)cc3)c2)cc1 (racemic) , when measured on UniProtKB O14842, yielded pEC50 of 6.89

The molecule O=C(O)CC(c1ccncc1)c1ccc(OCc2cccc(-c3ccc(C(F)(F)F)cc3)c2)cc1 (racemic) , when measured on UniProtKB O14842, yielded pEC50 of 6.72

The molecule O=C(O)CC(c1ccc(OCc2cccc(-c3ccc(C(F)(F)F)cc3)c2)cc1)c1cccnc1 (racemic) , when measured on UniProtKB O14842, yielded pEC50 of 6.40

###

pEC50 overview
- ASSAY TARGET: Free fatty acid receptor 1 (Homo sapiens)
- ASSAY OVERVIEW: Partial agonist activity at human GPR40 expressed in CHO cells measured over 20 secs interval by luminometric analysis in presence of 0.01% human serum albumin
- Format: cell-based
In simple prose, pEC50 is minus the logarithm base ten of a concentration in moles per litre.

Sample records with pEC50:
LINE NOTATION	EXPERIMENTAL ENDPOINT	RECORDED NUMBER
Cc1ccccc1-c1cccc(COc2ccc([C@H](CC(=O)O)c3nccn3C)cc2)c1	pEC50	7.37
Cc1cc(F)ccc1-c1cccc(COc2ccc([C@H](CC(=O)O)c3nccn3C)cc2)c1	pEC50	7.23
Cc1c(Cl)cccc1-c1cccc(COc2ccc([C@H](CC(=O)O)c3nccn3C)cc2)c1	pEC50	7.21
Cn1ccnc1[C@@H](CC(=O)O)c1ccc(OCc2cccc(-c3ccc(Cl)cc3Cl)c2)cc1	pEC50	7.16
Cc1cc(Cl)ccc1-c1cccc(COc2ccc([C@H](CC(=O)O)c3nccn3C)cc2)c1C	pEC50	6.62
CCc1ccccc1-c1cccc(COc2ccc([C@H](CC(=O)O)c3nccn3C)cc2)c1	pEC50	7.32

Okay, now this compound:
The compound `COc1cccc(-c2cccc(COc3ccc([C@H](CC(=O)O)c4nccn4C)cc3)c2)c1` , when measured on Free fatty acid receptor 1 (Homo sapiens), yielded pEC50 of 6.12
